All figures here come from patent US20210380703A1.

Target: T1, Goat anti-Human Kappa
T1 construct: Positive control; also called biotinylated goat anti-human kappa light chain
Assay: ELISA; positive control; note: test concentration or dose not given here
The following binders are listed with their measured optical density values.
property: optical density (OD)

1) 374_A05 (antibody, V domains shown, VH/VL only) VH: EVQLLESGGGLVQPGGSLRLSCAASGFTFSDYGMNWVRQAPGKGLEWVANINYNGGYKGYADSVKGRFTISRDNSKNTLYLQMNSLRAEDTAVYYCARGATWHDTHLDYWGQGTLVTVSS VL: DIQMTQSPSSLSASVGDRVTITCRASQSIVRYLNWYQQKPGKAPKLVIYAATSLASGVPSRFSGSGSGTDFTLTISSLQPEDFATYYCQQSYELPLTFGGGTKVEIK = 2.92
2) 369_F09 (antibody, V domains shown, VH/VL only) VH: EVQLLESGGGLVQPGGSLRLSCAASGFTFSSYGMHWVRQAPGKGLEWVAGINYNGGYTSYADSVKGRFTISRDNSKNTLYLQMNSLRAEDTAVYYCARGATWHDTHLDYWGQGTLVTVSS VL: DIQMTQSPSSLSASVGDRVTITCRASQSILTYVNWYQQKPGKAPKLLIYAATSRASGVPSRFSGSGSGTDFTLTISSLQPEDFATYYCQQSYDSPLTFGGGTKVEIK = 3.6
3) 370_B08 (antibody, V domains shown, VH/VL only) VH: EVQLLESGGGLVQPGGSLRLSCAASGFTFSDYSMNWVRQAPGKGLEWVANINYNGGYTGYADSVKGRFTISRDNSKNTLYLQMNSLRAEDTAVYYCARGATWHDTHLDYWGQGTLVTVSS VL: DIQMTQSPSSLSASVGDRVTITCRASQSILSYLNWYQQKPGKAPKLLIYAASSLQSGVPSRFSGSGSGTDFTLTISSLQPEDFATYYCQQSYDSPLTFGGGTKVEIK = 3.35
